- Measurement target: Human NaV1.7 (Homo sapiens, UniProt Q15858)
- Construct: expressed in transfected cells
- Sequence (Q15858 whole entry): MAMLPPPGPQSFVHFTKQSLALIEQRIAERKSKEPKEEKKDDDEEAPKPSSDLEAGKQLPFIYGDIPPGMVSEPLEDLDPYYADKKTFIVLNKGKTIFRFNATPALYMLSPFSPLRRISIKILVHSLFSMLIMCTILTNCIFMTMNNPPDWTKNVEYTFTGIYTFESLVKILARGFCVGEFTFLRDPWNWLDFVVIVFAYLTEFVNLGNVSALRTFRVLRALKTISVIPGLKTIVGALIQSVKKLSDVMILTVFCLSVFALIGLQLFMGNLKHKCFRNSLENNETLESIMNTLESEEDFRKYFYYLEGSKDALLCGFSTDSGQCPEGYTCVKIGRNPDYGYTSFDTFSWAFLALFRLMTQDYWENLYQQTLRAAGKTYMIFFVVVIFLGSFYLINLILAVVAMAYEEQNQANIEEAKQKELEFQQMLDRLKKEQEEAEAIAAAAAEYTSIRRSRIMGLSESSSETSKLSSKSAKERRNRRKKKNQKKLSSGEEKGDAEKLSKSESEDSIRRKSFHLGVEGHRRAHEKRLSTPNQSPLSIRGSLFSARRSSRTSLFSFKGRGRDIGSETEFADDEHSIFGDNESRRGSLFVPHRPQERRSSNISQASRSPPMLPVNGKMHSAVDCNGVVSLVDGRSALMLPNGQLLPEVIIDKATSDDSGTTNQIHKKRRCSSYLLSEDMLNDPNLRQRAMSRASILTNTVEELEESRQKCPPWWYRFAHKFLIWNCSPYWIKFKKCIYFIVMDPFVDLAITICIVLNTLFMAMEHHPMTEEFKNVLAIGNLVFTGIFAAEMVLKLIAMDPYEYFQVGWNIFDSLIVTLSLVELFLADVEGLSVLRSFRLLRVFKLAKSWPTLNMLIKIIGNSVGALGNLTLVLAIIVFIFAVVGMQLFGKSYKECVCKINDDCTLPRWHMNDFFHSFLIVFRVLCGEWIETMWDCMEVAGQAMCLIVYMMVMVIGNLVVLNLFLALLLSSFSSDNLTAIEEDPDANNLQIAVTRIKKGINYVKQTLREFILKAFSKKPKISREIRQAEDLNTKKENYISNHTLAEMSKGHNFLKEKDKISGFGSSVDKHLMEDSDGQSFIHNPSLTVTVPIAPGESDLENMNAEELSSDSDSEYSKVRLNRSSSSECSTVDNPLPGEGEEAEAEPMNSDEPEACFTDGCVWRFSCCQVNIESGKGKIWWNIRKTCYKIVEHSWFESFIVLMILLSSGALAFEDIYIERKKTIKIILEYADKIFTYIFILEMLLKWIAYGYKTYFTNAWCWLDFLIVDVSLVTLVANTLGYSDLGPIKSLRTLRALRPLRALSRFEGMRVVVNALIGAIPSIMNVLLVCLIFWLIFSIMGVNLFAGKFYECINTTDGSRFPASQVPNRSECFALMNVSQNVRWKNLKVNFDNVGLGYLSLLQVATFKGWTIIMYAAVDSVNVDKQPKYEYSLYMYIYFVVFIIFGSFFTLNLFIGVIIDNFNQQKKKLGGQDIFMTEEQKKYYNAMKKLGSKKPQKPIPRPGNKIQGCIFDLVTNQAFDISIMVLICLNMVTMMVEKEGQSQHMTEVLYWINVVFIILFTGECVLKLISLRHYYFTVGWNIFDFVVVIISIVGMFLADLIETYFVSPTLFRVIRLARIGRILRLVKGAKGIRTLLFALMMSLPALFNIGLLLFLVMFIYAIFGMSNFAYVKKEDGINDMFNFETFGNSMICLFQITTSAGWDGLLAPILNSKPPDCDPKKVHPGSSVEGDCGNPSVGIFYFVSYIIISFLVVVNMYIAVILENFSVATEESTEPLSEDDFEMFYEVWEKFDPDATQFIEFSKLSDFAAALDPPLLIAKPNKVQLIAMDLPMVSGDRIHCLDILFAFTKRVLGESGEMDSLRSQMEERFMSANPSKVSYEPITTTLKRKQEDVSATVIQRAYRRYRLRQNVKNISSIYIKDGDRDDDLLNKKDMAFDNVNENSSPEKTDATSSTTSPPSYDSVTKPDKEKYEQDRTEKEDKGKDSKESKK
- Method summary: PatchXpress automated patch clamp, hyperpolarized-state protocol
- Type: cell-based
- Condition parameters: HEK 293 cells

[
  {
    "Compound": "N#Cc1cc(S(=O)(=O)Nc2cscn2)ccc1Oc1ccc(Cl)cc1-c1ccnn1C1CNC1 [SSCI-5]",
    "Unit annotation": "nM",
    "IC50": 2100
  },
  {
    "Compound": "C[C@H](c1cccc2c1CNCC2)n1c(=O)oc2cc(S(=O)(=O)Nc3ncns3)ccc21 [SSCI-3]",
    "Unit annotation": "nM",
    "IC50": 1000
  },
  {
    "Compound": "COc1ccc(CCC(c2cccc3c2CNCC3)n2c(=O)oc3cc(S(=O)(=O)Nc4ncns4)c(F)cc32)cc1 (stereo not shown) [SSCI-6]",
    "Unit annotation": "nM",
    "IC50": 290
  },
  {
    "Compound": "O=S(=O)(Nc1nccs1)c1cc(Cl)c(NCCCCNC[C@H]2CCCN2)cc1F [SSCI-1]",
    "Unit annotation": "nM",
    "IC50": 65
  }
]

###

- System: phrenic nerve
- Method summary: Rat phrenic nerve firing assay
- Condition parameters: rat in vivo, measured at 30 minutes
Observed property: percent decrease in the magnitude of the phrenic nerve signal (%)

[
  {
    "Smi": "N#Cc1cc(S(=O)(=O)Nc2cscn2)ccc1Oc1ccc(Cl)cc1-c1ccnn1C1CNC1",
    "Unit annotation": "%",
    "Reported value": 76.1
  },
  {
    "Smi": "C[C@H](c1cccc2c1CNCC2)n1c(=O)oc2cc(S(=O)(=O)Nc3ncns3)ccc21",
    "Unit annotation": "%",
    "Reported value": 74.2
  },
  {
    "Smi": "O=S(=O)(Nc1ncns1)c1cc(F)c(NCC23CCCN2CCC3)cc1F",
    "Unit annotation": "%",
    "Reported value": 50
  }
]

###

- Method summary: Plasma exposure in rat CV/R assay
- Assay type: in vivo
- Condition parameters: male, CD, rat, plasma, iv, 30 mg/kg, rat, IV infusion, 30 mg/kg, 15 min; read-out: Unbound [plasma]
The following compounds are listed with their measured concentration at 15 min values.

[
  {
    "Smi": "O=S(=O)(Nc1nccs1)c1cc(Cl)c(NCCCCNC[C@H]2CCCN2)cc1F",
    "concentration at 15 min (µM)": 15.4
  },
  {
    "Smi": "C[C@H](c1cccc2c1CNCC2)n1c(=O)oc2cc(S(=O)(=O)Nc3ncns3)ccc21",
    "concentration at 15 min (µM)": 12.7
  },
  {
    "Smi": "N#Cc1cc(S(=O)(=O)Nc2cscn2)ccc1Oc1ccc(Cl)cc1-c1ccnn1C1CNC1",
    "concentration at 15 min (µM)": 4.9
  }
]

###

- Method summary: Plasma exposure in rat CV/R assay
- Type: in vivo
- Condition parameters: CD, rat, plasma, iv, 14 mg/kg, rat, IV infusion, 14 mg/kg, 15 min; read-out: Total [plasma]
Observed property: concentration at 15 min (µM)

[
  {
    "Smi": "O=S(=O)(Nc1nccs1)c1cc(Cl)c(NCCCCNC[C@H]2CCCN2)cc1F",
    "Reported value": 88.3
  }
]

###

- Measurement target: Serotonin 5-HT2B (Homo sapiens)
- Sequence (P41595 whole entry): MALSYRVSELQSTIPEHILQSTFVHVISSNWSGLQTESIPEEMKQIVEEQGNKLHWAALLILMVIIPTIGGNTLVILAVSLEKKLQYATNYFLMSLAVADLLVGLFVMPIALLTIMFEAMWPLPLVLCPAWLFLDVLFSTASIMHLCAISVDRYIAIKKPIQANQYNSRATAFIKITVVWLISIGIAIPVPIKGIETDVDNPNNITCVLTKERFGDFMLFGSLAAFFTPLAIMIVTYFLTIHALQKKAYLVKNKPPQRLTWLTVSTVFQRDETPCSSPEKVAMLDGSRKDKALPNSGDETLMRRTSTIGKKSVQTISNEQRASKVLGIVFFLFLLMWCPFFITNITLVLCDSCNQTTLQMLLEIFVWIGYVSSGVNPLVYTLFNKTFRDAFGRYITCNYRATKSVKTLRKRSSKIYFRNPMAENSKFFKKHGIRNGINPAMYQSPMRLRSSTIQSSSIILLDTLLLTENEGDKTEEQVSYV

[
  {
    "Smi": "O=S(=O)(Nc1nccs1)c1cc(Cl)c(NCCCCNC[C@H]2CCCN2)cc1F",
    "Ki": "> 10 µM"
  }
]

###

- Measurement target: NAChR α3β4 (Homo sapiens, UniProt P30926+P32297)
- Construct: Panlabs
- Sequence (P32297 32-505): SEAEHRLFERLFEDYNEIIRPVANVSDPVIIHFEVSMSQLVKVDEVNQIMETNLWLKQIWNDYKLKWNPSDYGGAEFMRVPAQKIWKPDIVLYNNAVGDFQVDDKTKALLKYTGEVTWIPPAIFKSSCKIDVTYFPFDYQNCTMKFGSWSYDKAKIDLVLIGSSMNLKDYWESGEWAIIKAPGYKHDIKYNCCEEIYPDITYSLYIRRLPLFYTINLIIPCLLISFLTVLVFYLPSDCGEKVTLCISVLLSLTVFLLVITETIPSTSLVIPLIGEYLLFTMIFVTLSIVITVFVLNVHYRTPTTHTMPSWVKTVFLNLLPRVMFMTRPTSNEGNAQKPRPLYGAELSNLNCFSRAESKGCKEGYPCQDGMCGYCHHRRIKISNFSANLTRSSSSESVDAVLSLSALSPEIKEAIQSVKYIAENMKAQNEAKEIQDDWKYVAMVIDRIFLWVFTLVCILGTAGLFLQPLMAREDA
- Sequence (P30926 22-498): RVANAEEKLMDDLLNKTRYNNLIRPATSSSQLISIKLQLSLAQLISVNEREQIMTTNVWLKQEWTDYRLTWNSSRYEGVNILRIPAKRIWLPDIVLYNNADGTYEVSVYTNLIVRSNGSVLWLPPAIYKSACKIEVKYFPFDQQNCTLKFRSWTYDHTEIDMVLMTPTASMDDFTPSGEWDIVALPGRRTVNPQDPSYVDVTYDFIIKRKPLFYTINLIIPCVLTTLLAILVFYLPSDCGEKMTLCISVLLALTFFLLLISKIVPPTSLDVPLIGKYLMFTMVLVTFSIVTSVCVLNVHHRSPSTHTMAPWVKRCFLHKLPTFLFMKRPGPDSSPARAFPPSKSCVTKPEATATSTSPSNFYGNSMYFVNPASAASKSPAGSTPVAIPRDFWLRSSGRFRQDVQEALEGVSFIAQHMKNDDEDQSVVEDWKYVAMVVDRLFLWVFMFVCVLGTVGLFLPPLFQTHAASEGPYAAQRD
- Method summary: Panlabs selection
pKi: −log10 of the molar value.

[
  {
    "Smi": "O=S(=O)(Nc1nccs1)c1cc(Cl)c(NCCCCNC[C@H]2CCCN2)cc1F",
    "Measurement target": "NAChR α3β4 (Homo sapiens, UniProt P30926+P32297)",
    "pKi": "< 5.00"
  }
]

###

- Method summary: Plasma exposure in rat CV/R assay
- Format: in vivo
- Condition parameters: CD, rat, plasma, iv, 1 mg/kg, rat, IV infusion, 1 mg/kg, 30 min; read-out: Total [plasma]
- Procedure: For in vivo CVR and phrenic nerve activity studies, all raw signals were amplified via general purposed biological amplifier (filter settings DC – 3-5 KhZ) then digitized, calibrated and collected at a minimum of 500 Hz (1000 Hz for ECG and 2000 Hz for cardiac electrograms, and 10 KHz for phrenic nerve activity) using Notocord-HEM data acquisition and analysis software. […] Exposure in rats was determined in separate pharmacokinetics experiments where compounds were administered via IV dosing.
Observed property: concentration at 30 min (nM)

[
  {
    "Compound": "COc1ccc(CCC(c2cccc3c2CNCC3)n2c(=O)oc3cc(S(=O)(=O)Nc4ncns4)c(F)cc32)cc1 (stereo not shown)",
    "Observed property": "concentration at 30 min",
    "Unit annotation": "nM",
    "Reported value": 1500
  }
]

###

Recorded IC50 by entry
- Measurement target: Cav1.2 (Homo sapiens)

[
  {
    "Molecule": "COc1ccc(CCC(c2cccc3c2CNCC3)n2c(=O)oc3cc(S(=O)(=O)Nc4ncns4)c(F)cc32)cc1 (centres unmarked)",
    "Comparative sign": "=",
    "IC50 / µM": 24
  },
  {
    "Molecule": "O=S(=O)(Nc1nccs1)c1cc(Cl)c(NCCCCNC[C@H]2CCCN2)cc1F",
    "Comparative sign": ">",
    "IC50 / µM": 30
  }
]

###

- Method summary: Plasma exposure in phrenic nerve activity assay
- Type: in vivo
- Condition parameters: CD, rat, plasma, intravenous, 30 mg/kg, 10 min, read-out: Total [plasma]

[
  {
    "Molecule": "O=S(=O)(Nc1ncns1)c1cc(F)c(NCC23CCCN2CCC3)cc1F [SSCI-4]",
    "concentration at 10 min [µM]": 91.4
  }
]

###

- Method summary: Plasma exposure in rat CV/R assay
- Type: in vivo
- Condition parameters: CD, rat, plasma, iv, 1 mg/kg, rat, IV infusion, 1 mg/kg, 30 min; read-out: Unbound [plasma]
- Method: For in vivo CVR and phrenic nerve activity studies, all raw signals were amplified via general purposed biological amplifier (filter settings DC – 3-5 KhZ) then digitized, calibrated and collected at a minimum of 500 Hz (1000 Hz for ECG and 2000 Hz for cardiac electrograms, and 10 KHz for phrenic nerve activity) using Notocord-HEM data acquisition and analysis software. […] Exposure in rats was determined in separate pharmacokinetics experiments where compounds were administered via IV dosing.

[
  {
    "Compound": "COc1ccc(CCC(c2cccc3c2CNCC3)n2c(=O)oc3cc(S(=O)(=O)Nc4ncns4)c(F)cc32)cc1 (stereo not shown) [SSCI-6]",
    "concentration at 30 min": "27 nM"
  }
]
